This collection of values is drawn from ChEMBL document CHEMBL1127932.

# SYSTEM UNDER TEST: Type-1 angiotensin II receptor (Bos taurus, UniProt P25104)
# Sequence (P25104 whole entry): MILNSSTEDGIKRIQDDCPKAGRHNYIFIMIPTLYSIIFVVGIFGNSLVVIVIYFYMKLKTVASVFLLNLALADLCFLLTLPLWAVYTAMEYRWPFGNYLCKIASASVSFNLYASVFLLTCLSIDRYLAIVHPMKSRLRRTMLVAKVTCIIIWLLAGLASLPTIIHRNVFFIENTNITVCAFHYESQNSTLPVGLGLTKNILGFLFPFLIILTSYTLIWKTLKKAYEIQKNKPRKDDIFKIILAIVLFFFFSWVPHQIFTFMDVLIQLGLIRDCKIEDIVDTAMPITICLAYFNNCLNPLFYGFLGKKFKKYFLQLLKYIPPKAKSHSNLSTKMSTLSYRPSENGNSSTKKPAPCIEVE
# ASSAY DETAILS: In vitro Angiotensin II receptor antagonism in bovine adrenal cortex tissue.
# Type: functional, tissue-based
pIC50: −log10 of the molar value.
ASSAY ENDPOINT: pIC50

Sample records with pIC50:
{"columns": ["COMPOUND", "SYSTEM UNDER TEST", "ASSAY VALUE"],
 "data": [
  ["CCCCc1nc2ccc(C3(C(=O)N4CCCCC4)C[C@H]4CCCN4O3)cc2c(=O)n1Cc1ccc(-c2ccccc2-c2nn[nH]n2)cc1 (some centres not stated)", "Type-1 angiotensin II receptor (Bos taurus, UniProt P25104)", 7.21],
  ["CCCCc1nc2ccc([C@@H]3C[C@H]4CCC(C)(C)N4O3)cc2c(=O)n1Cc1ccc(-c2ccccc2-c2nnn[nH]2)cc1", "Type-1 angiotensin II receptor (Bos taurus, UniProt P25104)", 7.41],
  ["CCCCc1nc2ccc([C@@]3(C)C[C@H]4CCC(C)(C)N4O3)cc2c(=O)n1Cc1ccc(-c2ccccc2-c2nnn[nH]2)cc1", "Type-1 angiotensin II receptor (Bos taurus, UniProt P25104)", 7.15],
  ["CCCCc1nc2ccc([C@]3(CC)C[C@H]4CCCN4O3)cc2c(=O)n1Cc1ccc(-c2ccccc2-c2nnn[nH]2)cc1", "Type-1 angiotensin II receptor (Bos taurus, UniProt P25104)", 7.08]
]}

(I) CCCCc1nc2ccc([C@@]3(C)C[C@H]4CCCN4O3)cc2c(=O)n1Cc1ccc(-c2ccccc2-c2nn[nH]n2)cc1
(II) CCCCc1nc2ccc(C3(C)CC(C(=O)OCC)=NO3)cc2c(=O)n1Cc1ccc(-c2ccccc2-c2nn[nH]n2)cc1 (configuration not stated)
(III) CCCCc1nc2ccc([C@]3(CO)C[C@H]4CCCN4O3)cc2c(=O)n1Cc1ccc(-c2ccccc2-c2nnn[nH]2)cc1
Enquiry: List from greatest to least pIC50. Kindly provide the labels arranged according to the requested ordering.
Return: III, I, II
(III: 7.46, I: 7.26, II: 6.85)
